Cited source for all entries: patent US20250002475A1

Molecular target: recombinant METTL3/METTL14 complex (Homo sapiens)
Sequence (Q86U44 whole entry): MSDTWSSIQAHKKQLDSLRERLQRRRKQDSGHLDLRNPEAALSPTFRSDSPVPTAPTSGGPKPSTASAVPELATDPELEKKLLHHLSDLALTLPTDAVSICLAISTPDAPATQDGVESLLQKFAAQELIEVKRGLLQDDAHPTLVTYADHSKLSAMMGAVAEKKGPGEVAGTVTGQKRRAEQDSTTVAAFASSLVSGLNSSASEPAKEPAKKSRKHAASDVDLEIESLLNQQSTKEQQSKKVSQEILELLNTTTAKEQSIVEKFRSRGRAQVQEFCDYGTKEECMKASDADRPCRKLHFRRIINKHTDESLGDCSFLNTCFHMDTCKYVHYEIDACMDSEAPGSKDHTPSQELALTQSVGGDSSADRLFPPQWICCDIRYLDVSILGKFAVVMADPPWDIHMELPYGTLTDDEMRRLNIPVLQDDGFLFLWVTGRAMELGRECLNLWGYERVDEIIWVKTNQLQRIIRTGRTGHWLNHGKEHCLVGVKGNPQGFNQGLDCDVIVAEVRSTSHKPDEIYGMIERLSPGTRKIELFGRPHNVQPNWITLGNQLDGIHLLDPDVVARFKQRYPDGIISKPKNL
Sequence (Q9HCE5 whole entry partner): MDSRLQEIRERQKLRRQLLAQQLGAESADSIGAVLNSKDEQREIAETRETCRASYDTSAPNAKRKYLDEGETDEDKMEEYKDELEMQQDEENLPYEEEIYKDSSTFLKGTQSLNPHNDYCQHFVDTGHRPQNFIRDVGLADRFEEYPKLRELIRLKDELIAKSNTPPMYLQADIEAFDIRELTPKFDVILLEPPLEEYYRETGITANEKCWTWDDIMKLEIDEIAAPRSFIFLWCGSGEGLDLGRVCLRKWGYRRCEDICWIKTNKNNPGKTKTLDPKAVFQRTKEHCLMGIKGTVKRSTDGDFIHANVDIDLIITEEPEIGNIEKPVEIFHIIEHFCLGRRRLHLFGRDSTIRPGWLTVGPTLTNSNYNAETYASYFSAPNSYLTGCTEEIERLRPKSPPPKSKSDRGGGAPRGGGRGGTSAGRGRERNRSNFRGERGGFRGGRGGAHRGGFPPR
Assay: METTL3/14 Scintillation Proximity Assay (SPA), RNA methyltransferase activity
Conditions: 5.31 nM METTL3/14 complex, 250 nM RNA substrate, 1 μM 3H-SAM, 90 min; for compounds marked * best of the two separated forms
pIC50: −log10 of the molar value.
METRIC: pIC50

Q) # query: pIC50 of entry CC(C(=O)Nc1cc(=O)n2ccccc2n1)c1ccc(N2CCC[C@@H](NCC3CCC3)C2)nn1 (stereo partly shown)
A) 6.30 to 7.30

Q) For `c1cc2cc(-c3cn(Cc4ccc(N5CCC[C@@H](NCC6CCC6)C5)nn4)nn3)cnc2[nH]1` , what is its reported pIC50?
A) ≥ 7.30

Q) What measured pIC50 goes with `COc1cncc(-c2cn(Cc3ccc(N4CCC[C@@H](NCC5CCC5)C4)cc3)nn2)c1` ?
A) ≥ 7.30

Q) Entry `CC(C)(c1ccc(N2CCC[C@@H](NCC3CC3)C2)cn1)c1nnc(-c2cncc(C3CC3)c2)s1` has what pIC50?
A) ≥ 7.30

Q) What value of pIC50 has been recorded for this entry: `O=C(Nc1cncc(N2CCCC2)n1)C1(c2ccc(N3CCC[C@@H](NCC4CCC4)C3)cn2)COC1`
A) ≥ 7.30

Q) Bench note: what pIC50 did `COc1cncc(-c2cn(C3(c4ccc(N5CCC[C@@H](NCC6CCC6)C5)cc4)COC3)nn2)c1` show?
A) ≥ 7.30

Q) Need pIC50, item `O=C(NCc1ccc(N2CCC[C@@H](NCC3CCC3)C2)nc1)c1cc(=O)n2ccccc2n1`
A) ≥ 7.30

Q) Given the molecule COc1cc(-c2cn(Cc3ccc(N4CCC[C@@H](NC5CCOC5)C4)nn3)nn2)c2cn[nH]c2c1 (single isomer, unassigned) , what is its reported pIC50?
A) ≥ 7.30

Q) If you can, please state the reported pIC50 value of CC(c1ccc(N2CCC[C@@H](NCC3(C)CC3)C2)nn1)n1cnc(-c2cncc(N3CCCC3)n2)c1 (single isomer, unassigned) .
A) ≥ 7.30

Q) Reported pIC50, molecule `O=c1[nH]c(-c2cn(Cc3ccc(N4CCC[C@@H](NCC5CCC5)C4)nn3)nn2)nc2ccccc12` : ____
A) 6.30 to 7.30

Q) Any idea what its pIC50 is? The molecule is CC(NC(=O)c1cc(=O)n2ccccc2n1)c1ccc(N2CCC[C@@H](NCC3CC3)C2)cn1 (mixture of isomers)
A) ≥ 7.30

Q) Request the reported pIC50 associated with COc1cncc(-c2cc(C(C)n3ccc(N4CCC[C@@H](NCC5CCC5)C4)cc3=O)sn2)c1 (mixture of isomers)
A) ≥ 7.30

Q) // lookup pIC50 for `COc1cncc(-c2nnn(Cc3ccc(N4CCC[C@@H](NCC5CCC5)C4)cc3)n2)c1`
A) 6.30 to 7.30
